Can you tell me pre-steady-state target cleavage rate for the items I'm about to list?
Test system: EfPiwi piRISC loaded with L1MC piRNA (26 nt)
Protocol: pre-steady-state target cleavage rate (min^-1); auxiliary factor: 500 nM Ephydatia muelleri Gtsf1; guide: L1MC piRNA 5'p-UAACUAAAUACUAUGCAAGCUGUAGG; higher = faster piRNA-guided slicing of the target
I'd appreciate a reply containing only the number, no unit.

Exam item: Would you kindly share the measured pre-steady-state target cleavage rate for UCCUGGUACAGCUUGCAUAGUAUUAAGUAA ?
Marked response: 0.0031

Exam item: Give its pre-steady-state target cleavage rate value. Item: UCCUGGAACAGCAUGCAUUGUAUUUAGUUA
Marked response: 0.00504

Exam item: I have this sequence here, UCCUCCUACAGCUUGCAUAGUAUUUAGUA , and I need its recorded pre-steady-state target cleavage rate.
Marked response: 0.00701

Exam item: Need pre-steady-state target cleavage rate of UCCUGGAUCAGCUUGCAUAGUAUUUAGUGUA , thanks.
Marked response: 0.0168

Exam item: Value lookup for pre-steady-state target cleavage rate; key = UCCUGGAACAGCUUGCAUAGUAUUUAGUUC [g2:g23:cont:t1C]
Marked response: 0.00959

Exam item: # lookup: pre-steady-state target cleavage rate of UCCUCCUACAGGAUGCAUAGUAUUUACAAA
Marked response: 0.0028

* * *

Test system: MILI (PIWIL2) piRISC loaded with L1MC piRNA (26 nt);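 further: 1 nM active piRISC with 0.1 nM target library at 33 °C single turnover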
Protocol: pre-steady-state target cleavage rate (min^-1); guide: L1MC piRNA 5'p-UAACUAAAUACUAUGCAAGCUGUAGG; higher = faster piRNA-guided slicing of the target
Condition context: auxiliary factor: none (no GTSF1)
Ranges used to classify pre-steady-state target cleavage rate: lower (below 0.004), middle (0.004 to below 0.006), upper (0.006 or more)

Exam item: Which pre-steady-state target cleavage rate category applies to UCCUGGAUGUCGUUGCUUAGUUUUUAGUUA here?
Marked response: upper

Exam item: Could you place UCCUGGAUGUCGAAGCAUAGUAUCUAGUUA in its proper category? Many thanks.
Marked response: middle

Exam item: Dear colleague, I would appreciate it if you could identify the bin for UCCUGGAUGUCGAUGCAUAGAUAAAUCAAA [g11:g17:cont:t1A] and reply at your convenience.
Marked response: lower

Exam item: Consider UCCUGGAUGUCCUUGCAUUGUUUUUAGUUA . To which pre-steady-state target cleavage rate class does it belong?
Marked response: middle

Exam item: Would you mind sorting UCCUGGAUCAGCAUGCAUACUAUUUAGUUA into the appropriate category?
Marked response: middle

Exam item: // return the class label for UCCUCCAACAGCUUGCAUAGUAUUUAGAUA
Marked response: middle

Exam item: Pick a category. Item: UCCUCCUACAGCUUGCAUAGUUUUUAGUUA
Marked response: middle

Exam item: Sort into band: UCCUGCUACAGCUUGCAUAAUAUUUAGUUA
Marked response: middle

Exam item: Assign a bin to UCCUGGAUGUGGUUGGAUAGUAUUUAGUUA
Marked response: upper

Exam item: Sort into band: UCCUGGAUGUGCUUGCAUGGUAUUUAGUUA
Marked response: upper

Exam item: Assign a bin to UCCUGCUACAGCUUGACAUAGUAUUUAGUUA
Marked response: middle

Exam item: Which class is correct for the following sequence? UCCUGGAACACCUUGCAAAGUAUUUAGUUA
Marked response: upper

Exam item: For UCCUGGAUGAGCUUGCAUAGUAUUUAGAUA , which pre-steady-state target cleavage rate bin applies?
Marked response: lower

Exam item: Please report the category associated with UCCUGGAUGUACUUGCAUAGUAUUUAGUUA , nothing else.
Marked response: upper

Exam item: Category lookup for the sequence UCCUGGAUGUCGUUGCAGAGUAUUUAGUUA
Marked response: lower

Exam item: Assign a category based on measured pre-steady-state target cleavage rate for UCCUGGAUCUCGUUGCAUAGUAUUUAGUAA and give only the class name.
Marked response: lower

Exam item: Category lookup for the sequence UCCUCCUACAGCUUGCAUAGUAUCUUAGUUA
Marked response: upper

Exam item: Exercise: read the entry UCCUGCUACACGCUUGCAUAGUAUUUAGUUA and state which class it falls under.
Marked response: upper

Exam item: Could you tell me which band UCCUCCUAAGCUUGCAUAGUAUUUAGUUA belongs to?
Marked response: middle

Exam item: State the class of the sequence shown: UCCUGGAACAGCUUGCUUAGUAAUUAGUUA
Marked response: middle

* * *

Tested on: MILI (PIWIL2) piRISC loaded with piRNA #1 (26 nt);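 further: 1 nM active piRISC with 0.1 nM target library at 33 °C single turnover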
Protocol: pre-steady-state target cleavage rate (min^-1); guide: piRNA #1 5'p-UGAGGUAGUAGGUUGUAUAGUAUCCA; MIWI and MILI are mouse PIWI proteins and EfPiwi is from a freshwater sponge; tags in brackets are library labels; higher = faster piRNA-guided slicing of the target
Condition context: auxiliary factor: 500 nM mouse GTSF1
Would you mind telling me the reported pre-steady-state target cleavage rate of each entry?

Exam item: Can you share its pre-steady-state target cleavage rate? I mean this sequence: GGAGACCUUACGUAUACAACCUACUACCUCA
Marked response: 0.0406

Exam item: Suppose we examine the sequence GGAGAGGAUUGUAUACAACCUACUACCUCA ; what pre-steady-state target cleavage rate value has been reported?
Marked response: 0.103

Exam item: Fill in the blank: the reported pre-steady-state target cleavage rate of GGAGUGGAUACUAUACAUCCUACUACCACA is ____.
Marked response: 0.108

Exam item: Which measured pre-steady-state target cleavage rate value corresponds to GGAGACCUAUGAAUACAACCUACCACCUCA ?
Marked response: 0.00506

Exam item: Param item = GGAGACGAUACUAUACAACCUACUACCUA ; retrieve measured pre-steady-state target cleavage rate.
Marked response: 0.151

Exam item: For the sequence shown here, GGAGAGGAUACUAUACAACCUCUACCUCA , give the reported pre-steady-state target cleavage rate.
Marked response: 0.0184

Exam item: # input sequence: GGAGUGGAUACUAUACAACCUACUACCUUA ; wanted: its pre-steady-state target cleavage rate
Marked response: 0.112

Exam item: Consider the sequence shown here: GGAGACCUUACUAUACAACCUACUACCUCC [g2:g22:cont:t1C] What is its recorded pre-steady-state target cleavage rate?
Marked response: 0.172

Exam item: pre-steady-state target cleavage rate lookup needed for GGAGUGGAUACUAUACAACCUACUACGCUCA , thanks.
Marked response: 0.111

Exam item: State the recorded pre-steady-state target cleavage rate for this entry: GGAGACCUUACUAAUCAACCUACUACCUCA
Marked response: 0.11

Exam item: Item under review: GGAGACGAUACUAUACAACCUACUUGCUCA . Reported pre-steady-state target cleavage rate?
Marked response: 0.155

Exam item: Fill in: pre-steady-state target cleavage rate of GGAGACGAUACUAUACAACCUACUCCUCA is ___
Marked response: 0.0114

Exam item: Value lookup for pre-steady-state target cleavage rate; key = GGAGAGGAUACUAUACAUCCUACUUCCUCA
Marked response: 0.0107

Exam item: // query pre-steady-state target cleavage rate value for entry GGAGACCAUACUAUACAAGCUUCUACCUCA
Marked response: 0.036

Exam item: GET /values?readout=pre-steady-state target cleavage rate&item= GGAGUGGUUACUAUACAAGCUACUACCUCA
Marked response: 0.213

Exam item: # pre-steady-state target cleavage rate lookup, item GGAGACCAUACUACUACAACCUACUACCUCA
Marked response: 0.137

Exam item: Item GGAGACGAUUCUAUACUACCUACUACCUCA has what recorded pre-steady-state target cleavage rate?
Marked response: 0.213

Exam item: Which pre-steady-state target cleavage rate is listed for GGAGACCUUACUAUACAACCUACUCCCUCA ?
Marked response: 0.0992

Exam item: For GGAGAGGAUACUAUAGAACCUACAACCUCA , what is its reported pre-steady-state target cleavage rate?
Marked response: 0.00427

Exam item: What value of measured pre-steady-state target cleavage rate is listed for GGAGACCUUUGAAUACAACCUACUACCUCA ?
Marked response: 0.00751

Exam item: For GGAGACCUAACUAUACAACCUAUCUACCUCA , what is its reported pre-steady-state target cleavage rate?
Marked response: 0.11

Exam item: Give its pre-steady-state target cleavage rate value. Item: GGAGACCUAUGUAUACGACCUACUACCUCA
Marked response: 0.0178

Exam item: Bench note: what pre-steady-state target cleavage rate did GGAGACCUAUCUUUACAACCUACAACCUCA show?
Marked response: 0.0745

Exam item: Any idea what pre-steady-state target cleavage rate was measured for GGAGAGGAUACUUUACAACCUACUAGCUCA ?
Marked response: 0.0731

Exam item: So what's the measured pre-steady-state target cleavage rate for this one? GGAGACCUUACUAUACAACCUACUACUCUCA
Marked response: 0.242

Exam item: Recorded pre-steady-state target cleavage rate for GGAGACCUAUCUUUACAUCCUACUACCUCA , please?
Marked response: 0.104

Exam item: Report pre-steady-state target cleavage rate for GGAGACCAUACAAUACAACCUACUACGUCA please.
Marked response: 0.0912

Exam item: # pre-steady-state target cleavage rate lookup, item GGAGUGCAUACUAUACAUCCUACUACCUCA
Marked response: 0.313

Exam item: Reported pre-steady-state target cleavage rate for GGAGACGAUACUAUACAACGCUACUACCUCA : what is it?
Marked response: 0.00688

Exam item: Could you share which pre-steady-state target cleavage rate value was measured for GGAGACCUUAGUAUACAACCUACUUCCUCA ?
Marked response: 0.0515

Exam item: Looking for the measured pre-steady-state target cleavage rate of GGAGAGGAUUCUUUACAACCUACUACCUCA , can you help?
Marked response: 0.167
